Here we list molecules with their recorded Ki when tested on Coagulation factor X (Homo sapiens).
Sequence (P00742 41-179 limits assumed): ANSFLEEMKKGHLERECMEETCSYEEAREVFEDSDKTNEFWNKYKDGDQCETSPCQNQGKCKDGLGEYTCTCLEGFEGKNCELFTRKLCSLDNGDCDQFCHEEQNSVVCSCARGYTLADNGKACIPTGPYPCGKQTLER
Sequence (P00742 235-488 limits assumed): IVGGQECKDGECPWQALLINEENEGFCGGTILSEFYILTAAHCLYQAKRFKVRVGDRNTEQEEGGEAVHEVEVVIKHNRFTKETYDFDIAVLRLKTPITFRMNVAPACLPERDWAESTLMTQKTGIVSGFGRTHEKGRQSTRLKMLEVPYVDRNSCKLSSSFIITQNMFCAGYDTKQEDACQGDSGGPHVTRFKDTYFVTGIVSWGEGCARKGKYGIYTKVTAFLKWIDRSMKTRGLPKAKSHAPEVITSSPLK

{"compound structure string": "CN(C)C(=O)c1cccc(Oc2nc3c(c(Oc4cc(C(=N)N)ccc4O)n2)NC(=O)CN3)c1", "target of assay": "Coagulation factor X (Homo sapiens)", "measurement units": "nM", "Ki": 19}
{"compound structure string": "Cc1nc2c(Oc3cc(C(=N)N)ccc3O)nc(Oc3cccc(C(=O)N(C)C)c3)nc2n1Cc1ccccc1", "target of assay": "Coagulation factor X (Homo sapiens)", "measurement units": "nM", "Ki": 0.42}
{"compound structure string": "CN(C)C(=O)c1cccc(Oc2nc(Oc3cc(C(=N)N)ccc3O)nc3c2NC(=O)CO3)c1", "target of assay": "Coagulation factor X (Homo sapiens)", "measurement units": "nM", "Ki": 106}
{"compound structure string": "Cc1nc2c(Oc3cccc(C(=O)N(C)C)c3)nc(Oc3cc(C(=N)N)ccc3O)nc2n1Cc1ccccc1", "target of assay": "Coagulation factor X (Homo sapiens)", "measurement units": "nM", "Ki": 10}
